So I've got a bunch of variants here, and I need their kcat values.
B1: glmS ribozyme (parent)
chain: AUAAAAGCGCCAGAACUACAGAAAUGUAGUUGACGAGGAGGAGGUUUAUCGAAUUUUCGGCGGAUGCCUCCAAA

Variants of: B1
test.summary: kcat; higher = faster cleavage; RNA array
condition.summary: with glucosamine-6-phosphate
Variants at the floor of the assay were thinned out.
Hi! Could you send only the number? It should be in s⁻¹, unit omitted.

Query: Returns the measured kcat for the input variant. Input: U46G C71U
Reply: 0.00721

Query: Now the same for G44C C67U
Reply: 0.00192

Query: Now the same for A5U
Reply: 0.0156

Query: Now the same for A15C U47G
Reply: 0.000994

Query: Now the same for A33G C68G
Reply: 3.02e-05

Query: Now the same for U54C U69A
Reply: 0.000112

Query: Now the same for A33U C70U
Reply: 0.000127

Query: Now the same for A6C U54G
Reply: 0.000119
